Values from ChEMBL document CHEMBL1139236

Molecular target: UniProt P08311
Sequence (whole entry): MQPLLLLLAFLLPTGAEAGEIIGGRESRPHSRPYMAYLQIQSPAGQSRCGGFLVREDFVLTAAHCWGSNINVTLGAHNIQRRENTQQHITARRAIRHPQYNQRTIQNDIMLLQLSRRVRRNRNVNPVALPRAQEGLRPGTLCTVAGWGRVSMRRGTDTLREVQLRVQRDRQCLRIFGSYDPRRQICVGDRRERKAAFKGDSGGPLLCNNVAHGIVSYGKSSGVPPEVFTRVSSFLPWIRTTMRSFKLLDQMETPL
Experiment: Inhibition of cathepsin G assessed as association equilibrium constant
Bridge positions count the residues as written; N and C are the ends. Square brackets hold non-standard residues; d marks the D form. Peptide text beside a SMILES is read from it. Phe(4-NO2) = N[C@@H](Cc1ccc([N+](=O)[O-])cc1)C(=O)O; Phe(4-F) = N[C@@H](Cc1ccc(F)cc1)C(=O)O; 4Pal = N[C@@H](Cc1ccncc1)C(=O)O
Metric name: Ka

Would you please look over these solved cases?
- Compound: "CC[C@H](C)[C@@H]1NC(=O)[C@@H]2CCCN2C(=O)[C@@H]2CCCN2C(=O)[C@H]([C@@H](C)CC)NC(=O)[C@H](CO)NC(=O)[C@H](Cc2ccc([N+](=O)[O-])cc2)NC(=O)[C@H]([C@@H](C)O)NC(=O)[C@@H](NC(=O)[C@H](CCCNC(=N)N)NC(=O)CN)CSSC[C@@H](C(=O)N[C@@H](Cc2ccccc2)C(=O)N2CCC[C@H]2C(=O)N[C@@H](CC(=O)O)C(=O)O)NC1=O (H-GRCT[Phe(4-NO2)]SIPPICFPD-OH; disulfide 3-11)"
  Ka: "< 1 ×10⁵ /M"
- Compound: "CC[C@H](C)[C@@H]1NC(=O)[C@@H]2CCCN2C(=O)[C@@H]2CCCN2C(=O)[C@H]([C@@H](C)CC)NC(=O)[C@H](CO)NC(=O)[C@H](Cc2ccc(F)cc2)NC(=O)[C@H]([C@@H](C)O)NC(=O)[C@@H](NC(=O)[C@H](CCCNC(=N)N)NC(=O)CN)CSSC[C@@H](C(=O)N[C@@H](Cc2ccccc2)C(=O)N2CCC[C@H]2C(=O)N[C@@H](CC(=O)O)C(=O)O)NC1=O (H-GRCT[Phe(4-F)]SIPPICFPD-OH; disulfide 3-11)"
  Ka: "3.8 ×10⁶ /M"

Could you now consider this next compound?
Name the reported Ka value associated with the compound CC[C@H](C)[C@@H]1NC(=O)[C@@H]2CCCN2C(=O)[C@@H]2CCCN2C(=O)[C@H]([C@@H](C)CC)NC(=O)[C@H](CO)NC(=O)[C@H](Cc2ccncc2)NC(=O)[C@H]([C@@H](C)O)NC(=O)[C@@H](NC(=O)[C@H](CCCNC(=N)N)NC(=O)CN)CSSC[C@@H](C(=O)N[C@@H](Cc2ccccc2)C(=O)N2CCC[C@H]2C(=O)N[C@@H](CC(=O)O)C(=O)O)NC1=O (H-GRCT[4Pal]SIPPICFPD-OH; disulfide 3-11)
< 1 ×10⁵ /M
